Target: recombinant homotrimeric HA, A/Wisconsin/67/05 H3N2 (Influenza A virus A/Wisconsin/67/05 (H3N2))
Assay name: trimeric HA microarray, transfection set 5
Recorded conditions: remark: other sources report otherwise
Experimental readout: Trimeric HA Binding RLU (RLU)
One number for each entry, in RLU.

Per the record, TCN-504 (3251_K17) (antibody, V domains shown) VH: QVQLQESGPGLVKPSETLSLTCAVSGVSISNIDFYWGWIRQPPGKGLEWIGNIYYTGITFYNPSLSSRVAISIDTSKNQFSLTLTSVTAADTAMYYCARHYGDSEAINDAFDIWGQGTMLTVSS VL: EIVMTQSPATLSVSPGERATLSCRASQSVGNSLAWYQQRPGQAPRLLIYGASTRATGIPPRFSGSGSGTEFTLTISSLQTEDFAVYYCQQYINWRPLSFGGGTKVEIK has Trimeric HA Binding RLU of 38100

Memo: TCN-546 (5089_L08) (antibody, V domains shown) VH: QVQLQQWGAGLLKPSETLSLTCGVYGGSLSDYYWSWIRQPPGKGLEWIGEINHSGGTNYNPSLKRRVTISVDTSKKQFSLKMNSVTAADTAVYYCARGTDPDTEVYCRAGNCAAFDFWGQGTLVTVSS VL: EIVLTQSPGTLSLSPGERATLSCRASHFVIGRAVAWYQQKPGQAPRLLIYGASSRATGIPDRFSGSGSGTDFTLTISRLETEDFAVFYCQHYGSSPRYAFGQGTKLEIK , reported Trimeric HA Binding RLU: 28500

The binder TCN-543 (5081_G23) (antibody, V domains shown) VH: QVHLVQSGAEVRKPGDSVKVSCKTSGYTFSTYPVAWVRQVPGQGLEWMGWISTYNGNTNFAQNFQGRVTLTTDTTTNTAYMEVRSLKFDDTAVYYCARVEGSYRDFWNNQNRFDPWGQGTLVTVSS VL: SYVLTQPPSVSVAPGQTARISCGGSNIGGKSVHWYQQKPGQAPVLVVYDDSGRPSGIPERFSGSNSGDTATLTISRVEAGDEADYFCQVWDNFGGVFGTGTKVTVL showed Trimeric HA Binding RLU equal to 37000

For each of the items listed, what is its Trimeric HA Binding RLU?
1. TCN-552 (5249_I23) (antibody, V domains shown) VH: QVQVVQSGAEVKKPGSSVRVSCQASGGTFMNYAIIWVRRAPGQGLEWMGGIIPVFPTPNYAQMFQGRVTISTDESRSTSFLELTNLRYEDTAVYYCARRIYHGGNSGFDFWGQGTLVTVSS VL: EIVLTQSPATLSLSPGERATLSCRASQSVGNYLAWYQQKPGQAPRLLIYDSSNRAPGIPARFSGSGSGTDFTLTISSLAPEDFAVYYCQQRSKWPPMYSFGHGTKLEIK
2. TCN-538 (3206_O17) (antibody, V domains shown) VH: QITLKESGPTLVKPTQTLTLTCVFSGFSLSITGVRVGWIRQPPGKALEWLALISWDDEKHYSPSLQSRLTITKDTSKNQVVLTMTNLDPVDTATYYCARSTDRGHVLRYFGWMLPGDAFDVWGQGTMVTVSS VL: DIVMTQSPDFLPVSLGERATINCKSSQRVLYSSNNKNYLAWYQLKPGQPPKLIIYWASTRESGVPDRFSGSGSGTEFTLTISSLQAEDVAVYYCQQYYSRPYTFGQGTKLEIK

Ans:
[18500, 2070]

Data origin, for the record: patent US20120207760A1
